I'd be grateful if you could share measured kobs for these entries.
Target: Epac2^fl (Mus musculus)
Sequence (Q9EQZ6 1-993 isoform Q9EQZ6-3): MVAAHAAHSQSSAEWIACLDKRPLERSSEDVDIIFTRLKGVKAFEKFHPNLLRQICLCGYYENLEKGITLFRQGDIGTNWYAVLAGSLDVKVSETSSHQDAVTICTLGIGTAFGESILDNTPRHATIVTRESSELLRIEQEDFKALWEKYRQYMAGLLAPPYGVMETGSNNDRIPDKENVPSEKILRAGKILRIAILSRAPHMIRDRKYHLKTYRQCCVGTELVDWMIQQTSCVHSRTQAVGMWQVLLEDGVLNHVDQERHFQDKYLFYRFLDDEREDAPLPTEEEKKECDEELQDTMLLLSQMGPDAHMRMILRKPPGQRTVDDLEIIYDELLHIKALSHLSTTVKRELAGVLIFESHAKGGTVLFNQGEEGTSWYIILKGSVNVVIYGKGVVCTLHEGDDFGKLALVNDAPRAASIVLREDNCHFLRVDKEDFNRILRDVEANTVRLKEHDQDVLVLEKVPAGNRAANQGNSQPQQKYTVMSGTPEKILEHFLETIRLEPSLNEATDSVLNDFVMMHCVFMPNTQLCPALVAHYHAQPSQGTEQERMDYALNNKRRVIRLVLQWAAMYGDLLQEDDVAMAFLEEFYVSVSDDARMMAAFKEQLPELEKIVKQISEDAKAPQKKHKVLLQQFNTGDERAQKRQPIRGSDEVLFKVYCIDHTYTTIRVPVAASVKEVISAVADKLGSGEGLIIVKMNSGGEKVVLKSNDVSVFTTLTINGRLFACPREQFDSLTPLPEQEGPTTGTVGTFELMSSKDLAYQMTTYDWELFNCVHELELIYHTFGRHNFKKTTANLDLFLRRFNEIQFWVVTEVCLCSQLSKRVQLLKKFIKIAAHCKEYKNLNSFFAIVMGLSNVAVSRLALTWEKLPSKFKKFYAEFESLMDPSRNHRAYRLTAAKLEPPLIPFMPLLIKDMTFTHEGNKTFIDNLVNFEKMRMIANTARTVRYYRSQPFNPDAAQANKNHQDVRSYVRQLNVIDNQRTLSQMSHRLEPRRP
Assay: Epac activation assay, full length Epac2
Assay type: biochemical
Parameters: made in house
Conditions: 60 μM compound
Write the number in s⁻¹ without appending the unit.

Please tell me: kobs of Nc1ncnc2c1ncn2[C@@H]1O[C@@H]2COP(=O)(O)O[C@H]2[C@H]1O [cAMP, reference compound] , system Epac2^fl (Mus musculus)? 0.000192

Any idea what kobs came out for `Cc1ccc(CSc2nc3c(N)ncnc3n2[C@@H]2O[C@@H]3CO[P@](O)(=S)O[C@H]3[C@H]2O)cc1` on Epac2^fl (Mus musculus)? 0.000519

Provide the documented kobs with Epac2^fl (Mus musculus) as the system for `Nc1ncnc2c1nc(SCc1ccccc1)n2[C@@H]1O[C@@H]2CO[P@](O)(=S)O[C@H]2[C@H]1O` 0.00155

Can you look up kobs on Epac2^fl (Mus musculus) for COC1C2OP(=O)(O)OCC2OC1n1c(Sc2ccc(Cl)cc2)nc2c(N)ncnc21 [D-007, 8-pCPT-2′-O-Me-cAMP, reference compound] ? 8.43e-05
